- ASSAY_SYSTEM: UniProt:P11309
- TEST_NAME: Pim-Mn enzyme assay (HTRF, 384-well), Pim-1
- Assay type: biochemical
- TEST_PARAMETERS: read-out: Pim-1-Mn IC50 IP
MEASURED_METRIC: IC50 (nM)
Numbers only, in nM.

| COMPOUND | UNIT_SYMBOL | IC50 |
| --- | --- | --- |
| Cc1nc2cccc(-c3cc4c([nH]3)CCNC4=O)c2nc1NC1(C)CCCCC1 | nM | 0.7 |

Parameter requested: IC50. Apply to each item below.
1. Cc1nc2cccc(-c3cc4c([nH]3)C(COCc3ccccc3)NC4=O)c2nc1NC1(C)CC1 (centres unmarked)
2. Cc1nc2ccc(F)c(-c3cc4c([nH]3)C3(CC3)NC4=O)c2nc1NC1(C)CC1
3. Cc1nc2ccc(F)c(-c3cc4c([nH]3)C3(CC3)NC4=O)c2nc1NC(C)(C)C
4. Cc1nc2cccc(-c3cc4c([nH]3)C3(CC3)NC4=O)c2nc1NCC(F)(F)F
5. Cc1nc2cccc(-c3cc4c(=O)[nH]nc(C)c4[nH]3)c2nc1NC(C)(C)C
6. Cc1nc2cccc(-c3cc4c([nH]3)C3(CC3)NC4=O)c2nc1NC1(C)CC1
7. Cc1nc2cccc(-c3cc4c([nH]3)C3(CC3)NC4=O)c2nc1NC1CC1

Completion:
[1.79, 0.0295, 0.562, 1.6, 7.63, 0.334, 0.293]

----------
- ASSAY_SYSTEM: Pim-1 (Homo sapiens (Human))
- TEST_NAME: Pim-Mn enzyme assay (HTRF, 384-well), Pim-1
- Assay type: biochemical
- TEST_PARAMETERS: Pim-1 enzyme 5 pM, ATP 1.5 μM, BAD (S112) 0.5 μM, HTRF, 22-point curve; read-out: Pim-1-Mn IC50 IP
What log10 of IC50 was measured for each of the following?
In plain terms, each number is the log10 of measured IC50 in nM.

| SMI | log10 of IC50 |
| --- | --- |
| Cc1nc2cccc(-c3cc4c([nH]3)CCNC4=O)c2nc1NCC(C)(C)O | 0.90 |

Could you tell me log10 of IC50 for each of these molecules? They are listed below.
1. C[C@H]1NC(=O)c2cc(-c3c(F)ccc4c(=O)n(C5CC5)c(NC5(C)CC5)nc34)[nH]c21
2. Cc1nc2cccc(-c3[nH]c4c(c3Cl)C(=O)NC4)c2nc1NC1(C)CC1
3. Cc1cccnc1-c1nc2c(-c3cc4c([nH]3)CCNC4=O)cccc2nc1C

Completion:
1. -1.34
2. -1.47
3. 2.30

# map each molecule to its log10 of IC50
1. Cc1nc2cccc(-c3cc4c([nH]3)CCNC4=O)c2nc1N(C)C(C)C
2. C[C@H]1NC(=O)c2cc(-c3cccc4c(=O)n(C5CCC5)c(NC(C)(C)C)nc34)[nH]c21
3. Cc1nc2cccc(-c3cc4c(=O)[nH]ncc4[nH]3)c2nc1NC(C)(C)C
4. Cc1nc2cccc(-c3cc4c([nH]3)[C@H](C)NC4=O)c2nc1NC1(C)CC1

Completion:
0.65
-0.52
0.74
-0.71

----------
Assign IC50 to each entry below.
- ASSAY_SYSTEM: Pim-2 (Homo sapiens (Human), UniProt Q9P1W9)
- Sequence (Q9P1W9 whole entry): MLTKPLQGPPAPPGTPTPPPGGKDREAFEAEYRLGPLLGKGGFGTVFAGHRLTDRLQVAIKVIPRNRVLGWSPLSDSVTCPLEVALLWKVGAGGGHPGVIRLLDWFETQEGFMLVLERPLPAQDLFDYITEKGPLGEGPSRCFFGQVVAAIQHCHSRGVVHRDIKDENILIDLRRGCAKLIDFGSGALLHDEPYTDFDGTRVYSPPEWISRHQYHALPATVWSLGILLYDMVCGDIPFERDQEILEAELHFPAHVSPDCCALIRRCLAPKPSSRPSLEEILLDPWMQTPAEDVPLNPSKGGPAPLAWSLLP
- TEST_NAME: Pim-Mn enzyme assay (HTRF, 384-well), Pim-2
- Assay type: biochemical
- TEST_PARAMETERS: Pim-2 enzyme 0.5 pM, ATP 1.5 μM, BAD (S112) 0.5 μM, HTRF, 22-point curve; read-out: Pim-2-Mn IC50 IP

Take a look at these entries with their results.
| SMI | IC50 |
| --- | --- |
| CC(C)(C)Nc1nc2c(-c3cc4c([nH]3)CCNC4=O)cccc2nc1CO | 2.26 nM |
| Cc1nc2cccc(-c3cc4c([nH]3)CCNC4=O)c2nc1-c1ccncc1Cl | 239 nM |
| Cc1nc2cccc(-c3cc4c([nH]3)C3(CC3)NC4=O)c2nc1NC1CC1 | 0.242 nM |
| COC1=NCCc2[nH]c(-c3cccc4nc(C)c(NC(C)(C)C)nc34)cc21 | 8.9 nM |
| C[C@H]1NC(=O)c2cc(-c3cccc4c(=O)n(C5CCOCC5)c(NC(C)(C)C)nc34)[nH]c21 | 0.671 nM |

// input: 3 compounds below; output: IC50 for each
1. Cc1nc2ccc(F)c(-c3cc4c([nH]3)[C@H]([C@@H](C)O)NC4=O)c2nc1NC1CC1
2. Cc1nc2cccc(-c3cc4c([nH]3)CCNC4=O)c2nc1SC(C)(C)C
3. CC(=O)N1CC[C@@H](Nc2nc3c(-c4cc5c([nH]4)CCNC5=O)cccc3nc2C)C1

Completion:
["2.45 nM", "4.3 nM", "34.5 nM"]

----------
- ASSAY_SYSTEM: Pim-1 (Homo sapiens (Human))
- TEST_NAME: Pim enzyme assay (HTRF, 96-well), Pim-1
- Assay type: biochemical
- TEST_PARAMETERS: full length recombinant Pim-1, biotinylated-BAD (S112) peptide, 10-point curve, 2 h RT, read-out: Pim-1 IC50 IP
MEASURED_METRIC: pIC50
Numbers only, as −log10 of the molar value.

Solved entries:
| COMPOUND | ASSAY_SYSTEM | pIC50 |
| --- | --- | --- |
| Cc1nc2cccc(-c3cc4c([nH]3)CCNC4=O)c2nc1N[C@H]1CC[C@@H](N)C1 (single isomer, unassigned) [Example 143] | Pim-1 (Homo sapiens (Human)) | 9.15 |
| CN(c1ccccc1)c1ccc2cccc(-c3cc4c([nH]3)CCNC4=O)c2n1 [Example 4] | Pim-1 (Homo sapiens (Human)) | 8.68 |

Provide each entry's pIC50 from the list below.
1. Cc1nc2cccc(-c3cc4c([nH]3)CCNC4=O)c2nc1NC1CC(F)(F)C1 [Example 145]
2. O=c1[nH]cnc2[nH]c(-c3cccc4ccc(Nc5ccccc5)nc34)cc12 [Example 16]
3. O=C1NCCc2[nH]c(-c3cccc4ccc(N5CCOCC5)nc34)cc21 [Example 84]
4. Cc1nc2cccc(-c3cc4n(c3)CCNC4=O)c2nc1NC1CC1 [Example 233, 2,2,2-trifluoroacetate]
5. O=c1[nH]cnc2[nH]c(-c3cccc4ccc(Oc5ccccc5)nc34)cc12 [Example 17]

Completion:
1. 7.85
2. 8.57
3. 7.69
4. 7.35
5. 7.47

Prompt: // Input: O=C1NCCc2[nH]c(-c3cccc4ccc(Nc5ccc(F)cc5F)nc34)cc21 [Example 8] . Output its pIC50 only.
Completion: 8.55

----------
- ASSAY_SYSTEM: Pim-2 (Homo sapiens (Human))
- TEST_NAME: Pim enzyme assay (HTRF, 96-well), Pim-2
- Assay type: biochemical
- TEST_PARAMETERS: full length recombinant Pim-2, biotinylated-BAD (S112) peptide, 10-point curve, 45 min RT, read-out: Pim-2 IC50 IP
MEASURED_METRIC: pIC50
Numbers only, as −log10 of the molar value.

| COMPOUND | ASSAY_SYSTEM | pIC50 |
| --- | --- | --- |
| Cc1nc2cccc(-c3cc4c([nH]3)CCNC4=O)c2nc1NC1CCCC1 | Pim-2 (Homo sapiens (Human)) | 8.26 |
| C=C(C)CNc1nc2c(-c3cc4c([nH]3)CCNC4=O)cccc2nc1C | Pim-2 (Homo sapiens (Human)) | 8.33 |
| O=C1NCCc2[nH]c(-c3cccc4cnc(C5(c6ccccc6)CC5)nc34)cc21 | Pim-2 (Homo sapiens (Human)) | 7.75 |

Pending compound:
Prompt: For CC1CNC(=O)c2cc(-c3cccc4ncc(Nc5ccccc5)nc34)[nH]c21 (racemic) , write its pIC50.
Completion: 8.37

----------
Please respond with reported IC50 for every item in the list.
- ASSAY_SYSTEM: Pim-1 (Homo sapiens (Human), UniProt P11309)
- Sequence (P11309 whole entry): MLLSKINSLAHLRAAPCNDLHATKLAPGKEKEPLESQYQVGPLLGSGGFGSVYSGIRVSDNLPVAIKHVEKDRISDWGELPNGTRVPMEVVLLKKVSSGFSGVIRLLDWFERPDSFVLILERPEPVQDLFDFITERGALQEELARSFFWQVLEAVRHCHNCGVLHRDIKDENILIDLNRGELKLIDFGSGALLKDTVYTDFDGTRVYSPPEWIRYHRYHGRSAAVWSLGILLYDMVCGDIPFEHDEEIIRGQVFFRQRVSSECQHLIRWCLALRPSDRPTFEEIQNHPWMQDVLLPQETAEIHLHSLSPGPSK
- TEST_NAME: Pim-Mn enzyme assay (HTRF, 384-well), Pim-1
- Format: biochemical
- TEST_PARAMETERS: Pim-1 enzyme 5 pM, ATP 1.5 μM, BAD (S112) 0.5 μM, HTRF, 22-point curve; read-out: Pim-1-Mn IC50 IP
Answers are plain numbers, in nM.

Study these solved cases before continuing.
| COMPOUND | MEASURED_METRIC | REPORTED |
| --- | --- | --- |
| Cc1nc2cccc(-c3cc4c([nH]3)CCNC4=O)c2nc1NC(C)(C)CS(C)(=O)=O | IC50 | 44.4 |
| Cc1nc2ccc(F)c(-c3cc4c([nH]3)[C@@H](C)NC4=O)c2nc1NC1(C)CC1 | IC50 | 0.0376 |
| C[C@@H](O)c1nc2cccc(-c3cc4c([nH]3)CCNC4=O)c2nc1NC(C)(C)C | IC50 | 1.98 |
| Cc1nc2cccc(-c3cc4c([nH]3)CCNC4=O)c2nc1NC1(C(F)(F)F)CC1 | IC50 | 0.694 |
| COCC(C)(C)Nc1nc2c(-c3cc4c([nH]3)CCNC4=O)cccc2nc1C [Example 63] | IC50 | 4.3 |

Batch: IC50 for all items listed.
1. Cc1nc2cccc(-c3cc4c([nH]3)C(CO)NC4=O)c2nc1NC1(C)CC1 (stereo not shown)
2. CC(C)(C)Nc1nc2c(-c3cc4c([nH]3)CCNC4=O)cccc2nc1-c1ccccc1
3. Cc1nc2cccc(-c3cc4c([nH]3)C[C@@H](C)NC4=O)c2nc1NC(C)(C)C
4. Cc1nc2cccc(-c3cc4c([nH]3)[C@@H](C)NC4=O)c2nc1O[C@@H](C)C(F)(F)F
5. Cc1nc2cccc(-c3cc4c([nH]3)C3(CC3)NC4=O)c2nc1NC(C)(C)C

Completion:
[1.42, 3.1, 2.69, 21.6, 0.139]
